Origin of measurements: the supplement of paper PMC8728848

Target: Neu5Ac(a2-8)Neu5Ac(a2-8)Neu5Ac(a2-3)Gal(b1-4)Glc
Test: glycan array binding signal (z-score within array); higher = stronger binding
Settings: glycan notation: IUPAC condensed, linker removed
The entries come from a sample that favours the strongest signals as a whole.
QUANTITY: glycan array binding signal (z-score)
Provide a numeric answer; units are not to be included.

Query :: Give the measured glycan array binding signal (z-score) of STA (Solanum tuberosum) (protein) NASAPLPYPQCGLKKGGGKCIKTGECCSIWGWCGTTSDYCAPGYCQKQCPGPYPQGRCGWQANGKSCPTGTGQCCSNAGWCGTTSDYCAPNNCQSQCKLPPPPPSPPPPPPSPPPPSPPPPPPSPPPPSPSPPPPPPSPPPPSPPPPSPPPPSPPPPPSPSPPPPPPSPPPPPPPLPYPQCGMKKGGGKCIKTGECCSIWGWCGTTSKYCSPGYCQMQCPDPYPEGRCGWQANGKSCPTGTGQCCSNAGWCGTTSAYCAPVNCQAQCNTTTLTSPIKNRMRGIESFMLNVV .
Result :: -0.5
